# System: BT-549 breast
# procedure_summary: NCI-60 one-dose screen, 48 h (100 = growth as untreated, 0 = no growth, -100 = all killed)
# condition_summary: 10 µM unless noted
Compounds without any hit were thinned out: in the full panel of roughly 83,000, 20% have a hit. Calls of active or inactive are those of the source. Rule for the calls: active = growth percent below 10; inactive = the rest.
The following compounds are listed with their measured growth values.
property_label: growth

{"columns": ["compound", "meas_value"],
 "data": [
  ["O=C(/C=C/c1ccc(F)cc1)c1ccc(O)cc1", "103% (inactive)"],
  ["COc1cc(-c2ccc3ncnc(NCc4ccccc4)c3c2)cnc1OC", "57.2% (inactive)"],
  ["CS(=O)(=O)Nc1cc(-c2ccc3ncc(C#N)c(Nc4cccc(Cl)c4F)c3c2)cnc1Cl", "-4.23% (active)"],
  ["O=C(CCn1c[n+](CC(=O)c2ccc(F)cc2)c2ccccc21)Nc1cccc2cccnc12", "69.9% (inactive)"],
  ["CCC(NC(c1cc2cccc3ccc4cccc1c4c32)c1nnnn1C(C)(C)C)C1CCCCC1 (stereo unspecified)", "50.5% (inactive)"],
  ["Clc1ccc(N/N=c2/oc3ccccc3cc2-c2cc3ccccc3[nH]2)cc1", "80.3% (inactive)"],
  ["Cn1cc(CNc2nc3ccc(OC/C(=C/F)CN)cc3o2)ccc1=O", "99.8% (inactive)"],
  ["COc1cc(OC)c(/C=C/S(=O)(=O)Cc2ccc(OC)c(NCC(=O)NO)c2)c(OC)c1", "11.6% (inactive)"],
  ["CC1=N[C@@H]2CN(C(=O)OC(C)(C)C)C[C@@H]2n2c1cc1ccccc1c2=O", "144% (inactive)"],
  ["Nc1nc(N)c2c(n1)NC(c1ccc(C(F)(F)F)cc1)CC(c1ccc(Nc3nc(NCCO)nc(N4CCOCC4)n3)cc1)=N2 (stereo unspecified)", "76.3% (inactive)"],
  ["CC(=O)c1cc(C(=O)c2ccc(Br)cc2)n2cc(C)cc(C)c12", "79% (inactive)"],
  ["CCCCCc1ccc(S(=O)(=O)Nc2cccc(-c3csc(NC(=O)CN4CCN(CCO)CC4)n3)c2)cc1", "99.9% (inactive)"],
  ["C[C@H](CCC(=O)NCc1ccc(C(=O)Nc2ccccc2N)cc1)[C@H]1CC[C@H]2[C@@H]3[C@@H](O)C[C@@H]4C[C@H](O)CC[C@]4(C)[C@H]3CC[C@]12C", "54.1% (inactive)"],
  ["Brc1ccccc1/C=N/Nc1nc(N/N=C/c2ccccc2Br)nc(N2CCOCC2)n1", "107% (inactive)"],
  ["CCO/C=N/C1=C(C#N)C(c2ccc(OC)cc2)c2sc3c(C)cccc3c2O1 (stereo unspecified)", "35.2% (inactive)"],
  ["CCOC(=O)c1c(Nc2ccccc2)nn2c(-c3ccc(Cl)cc3)ccnc12", "103% (inactive)"],
  ["O=S(=O)(NCCCNc1nccc(-c2[nH]c(-c3ccccc3)nc2-c2ccc(Cl)c(O)c2)n1)c1cccc2ccccc12", "46% (inactive)"],
  ["CCO/C=N/C1=C(C#N)C(c2ccc(F)cc2)c2sc3c(C)cccc3c2O1 (stereo unspecified)", "20% (inactive)"],
  ["COc1c(N2CC3CCCNC3C2)c(F)cc2c(=O)c(C(=O)N/N=C/c3ccccc3)cn(C3CC3)c12 (stereo unspecified)", "106% (inactive)"],
  ["CN1CCN(c2ccc(/C=N/n3cnc4oc(-c5ccccc5)cc4c3=N)cc2)CC1", "89.7% (inactive)"],
  ["N#C/C(=C\\c1ccc(-c2ccc(Cl)cc2Cl)o1)c1ccc(F)cc1", "112% (inactive)"],
  ["COc1cc(Cn2cc3c(c2)-c2onc(CN4CCCC4)c2CC3)cc(OC)c1OC", "93.2% (inactive)"],
  ["COc1c(N2CC3CCCNC3C2)c(F)cc2c(=O)c(C(=O)N/N=C/c3ccc(F)cc3)cn(C3CC3)c12 (stereo unspecified)", "84.8% (inactive)"],
  ["COC(=O)C(Cc1ccccc1)Nc1nc(NC(Cc2ccccc2)C(=O)OC)nc(N2CCOCC2)n1 (stereo unspecified)", "112% (inactive)"],
  ["COc1ccccc1-n1cc(C#N)c(N)c1C(=O)c1ccc(Cl)cc1", "92.7% (inactive)"],
  ["CCn1c(SCC(=O)Nc2cccc(C(=O)/C=C/c3ccccc3Cl)c2)nc2ccccc2c1=O", "105% (inactive)"],
  ["O=C(O)c1ccc(-n2cc(CNc3cc(F)c(F)c(F)c3)c(-c3cccc(F)c3)n2)cc1", "107% (inactive)"],
  ["COc1cc(OC)c(S(N)(=O)=O)cc1C(C)=O", "115% (inactive)"],
  ["O=C1[C@H]2Cc3c([nH]c4ccccc34)[C@@H](c3ccc(Cl)cc3)N2C(=O)CN1C1CCN(Cc2ccccc2)CC1", "83.9% (inactive)"],
  ["CC1(C)CC[C@]2(C(=O)N3CCOCC3)CC[C@]3(C)C(=CC[C@@H]4[C@@]5(C)C/C(=C/c6ccccn6)C(=O)C(C)(C)[C@@H]5CC[C@]43C)[C@@H]2C1", "70% (inactive)"],
  ["CC[C@]12C=CCN3CC[C@@]4(c5cc(NC(=O)COc6cc(O)c7c(=O)cc(-c8ccccc8)oc7c6)c(OC)cc5N(C)[C@H]4[C@@](O)(C(=O)OC)[C@@H]1OC(C)=O)[C@@H]32", "-36.2% (active)"],
  ["CNc1ncc2cc(-c3ccc(-c4ncccc4F)cc3Cl)c(=O)n(CC3OCC(N)CO3)c2n1 (stereo unspecified)", "82.1% (inactive)"],
  ["C=CC(=O)N1CCC=C(c2cc3c(N[C@H](C)c4ccccc4)ncnc3[nH]2)C1", "89.8% (inactive)"],
  ["COc1ccc(/C=C(\\C#N)C(=O)N2c3ccccc3Sc3ccc(SC)cc32)cc1F", "104% (inactive)"],
  ["NC(=O)c1c(NC(=O)c2ccccc2C(F)(F)F)sc2c1CCC(=O)C2", "14.7% (inactive)"],
  ["COc1ccc2c(c1)c(-c1cc(N)n3nc(-c4cn(C)c5ccc(OC)cc45)cc3n1)cn2C", "117% (inactive)"]
]}

* * *

The following molecules are listed with their measured growth values.
# System: DU-145 prostate
# procedure_summary: NCI-60 one-dose screen, 48 h (100 = growth as untreated, 0 = no growth, -100 = all killed)
# condition_summary: 10 µM unless noted
About 83,000 compounds went through this panel and 20% of them were active in at least one assay; those are over-represented in the sample as a whole.

{"columns": ["molecule", "tested_on", "growth [%]"],
 "data": [
  ["CC(=O)N(C)C1CCc2c(sc(NC(=O)c3ccc(C(C)(C)C)cc3)c2C(N)=O)C1 (centres undefined)", "DU-145 prostate", 58.9],
  ["NC(N)=Nc1ccc(Oc2cccc(Nc3ccc(Cl)cc3)c2)cn1", "DU-145 prostate", -18.1],
  ["O=C(CN1CCN(c2cc(=O)[nH]c3ccc(F)cc23)CC1)Nc1ccc(Cl)cc1", "DU-145 prostate", 78.1],
  ["COc1ccc(/C=C/C(=O)c2cc(S(N)(=O)=O)c(OC)cc2OC)cc1", "DU-145 prostate", 17.3],
  ["COc1ccc2c(c1)c(CC(=O)[Se]CC#N)c(C)n2C(=O)c1ccc(Cl)cc1", "DU-145 prostate", -37.1],
  ["CN1c2ccccc2Sc2cc(C=C(C#N)C#N)ccc21", "DU-145 prostate", 110],
  ["Cn1ccnc1C(=O)/C=C/c1ccc(CNC(=O)c2c(F)c(F)c(F)c(F)c2F)cc1", "DU-145 prostate", 17.7],
  ["Cc1cccc2c3c(sc12)C(c1ccc(F)cc1)C(C#N)=C(/N=C/c1ccc(Cl)cc1)O3 (centres undefined)", "DU-145 prostate", 20.8],
  ["C[C@@H]1C[C@H]2C(=O)O[C@@H](C)C(NC(=O)[C@H](Cc3cc(F)cc(F)c3)NC(=O)Nc3ccc(C4CC4)cc3F)C(=O)N3CCC[C@H]3C(=O)N3CCCC[C@H]3C(=O)N[C@@H](CO)C(=O)N2C1 (some centres undefined)", "DU-145 prostate", 25.6]
]}

* * *

# Tested on: NCI-H322M lung
# procedure_summary: NCI-60 one-dose screen, 48 h (100 = growth as untreated, 0 = no growth, -100 = all killed)
# condition_summary: 10 µM unless noted
# Procedure: Growth inhibition of the NCI-H322M human Non-Small Cell Lung tumor cell line is measured as a screen for anti-cancer activity. Cells are grown in 96 well plates and exposed to the test compound for 48 hours. Compounds are tested at a single concentration, which is 10^-5 M for most compounds. The reported endpoint is percent growth (GI% or GIPRCNT), where numbers from 0 - 100% represent growth inhibition, and numbers from -100% - 0 represent cell death. […]
The panel holds about 83,000 compounds, 20% with a hit somewhere; the sample as a whole holds those more often.

{"columns": ["compound", "tested_on", "growth, %"],
 "data": [
  ["CCCn1cnc2c(c1=N)C(c1ccc(Cl)cc1)c1sc3c(C)cccc3c1O2 (stereo unspecified)", "NCI-H322M lung", 43.8],
  ["COc1ccccc1C(=O)Nc1cccc2c1C(=O)C(=O)C=C2", "NCI-H322M lung", 112],
  ["COc1cc(OC)c(S(N)(=O)=O)cc1C(=O)/C=C/c1ccc(C)cc1", "NCI-H322M lung", 34.6],
  ["Cc1nn(-c2ccccc2)c2ncnc(N/N=C/c3ccccc3)c12", "NCI-H322M lung", 95],
  ["COc1ccccc1-n1cc(C#N)c(N)c1C(=O)c1ccc(Cl)cc1", "NCI-H322M lung", 103],
  ["O=C(CNc1nc(-c2cccc([N+](=O)[O-])c2)cs1)Nc1cccc([N+](=O)[O-])c1", "NCI-H322M lung", 58.9]
]}
